System: HeLa
assay.info: Cytotoxicity in HeLa cells
CC50 for assorted compounds
Write the value in µM as a bare number.

Some solved entries appear below for comparison.
{"compound": "CCCCOc1cc(C(=O)NCCN(CC)CC)c2ccccc2n1 [drawing 127]", "CC50 / µM": 36}
{"compound": "O=C(NCCN1CCCC1)c1cc(-c2cccs2)nc2ccccc12 [drawing 130]", "CC50 / µM": 41.7}
{"compound": "CN(C)CCNC(=O)c1cc(-c2ccccc2)nc2ccccc12 [drawing 128]", "CC50 / µM": 68.7}

Moving on to another compound below.
# input compound: CN(C)CCNC(=O)c1cc(-c2cccs2)nc2ccccc12 [drawing 129] ; wanted: its CC50
51.2

###

Below, each of the compounds is paired with its reported CC50 value.
Tested on: RD cells
assay.info: Cytotoxicity, neutral red method, RD cells
condition.description: RD cells, neutral red method
Express the result in µM but write the number alone.

Some entries whose results are on file:
{"compound": "CC(C)Oc1cc(C(=O)NCCN(C)C)c2ccccc2n1 [Compound 8a]", "target.under.test": "RD cells", "CC50, µM": 38.5}
{"compound": "CN(C)CCCNC(=O)c1cc(-c2ccccc2)nc2ccccc12 [Compound 10h]", "target.under.test": "RD cells", "CC50, µM": 44.9}
{"compound": "CC(C)Oc1cc(C(=O)NCCN)c2ccccc2n1 [Compound 8b]", "target.under.test": "RD cells", "CC50, µM": 149}
{"compound": "CCC(CC)Oc1cc(C(=O)NCCN(CC)CC)c2ccccc2n1 [Compound 5h]", "target.under.test": "RD cells", "CC50, µM": 9.5}
{"compound": "CCN(CC)CCNC(=O)c1cc(-c2ccn[nH]2)nc2ccccc12 [Compound 6a]", "target.under.test": "RD cells", "CC50, µM": 132}

Look up CC50 for this compound: CCN(CC)CCNC(=O)c1cc(-c2cnc(N(C)C)nc2)nc2ccccc12 [Compound 6p]
74.2

Quick one: CC50 of CC(C)Oc1cc(C(=O)NCCN2CCCC2)c2ccccc2n1 [Compound 8e] ?
36.9

# CC50 lookup, item CC(C)Oc1cc(C(=O)NC2CCN(C)CC2)c2ccccc2n1 [Compound 8g]
101

Would you kindly share the measured CC50 for CCN(CC)CCNC(=O)c1cc(-c2c(C)noc2C)nc2ccccc12 [Compound 6h] ?
129

Quick one: CC50 for CN(C)CCCNC(=O)c1cc(-c2cccs2)nc2ccccc12 [Compound 12b] ?
40.5

Record request: CC50 value, item CCN(CC)CCNC(=O)c1cc(-c2ccc(COC)cc2)nc2ccccc12 [Compound 6n]
46.6

Would you mind telling me what CC50 value was observed for CCOc1cc(C(=O)NCCN(CC)CC)c2ccccc2n1 [Compound 5b] ?
165

CC50 for O=C(NCCCn1ccnc1)c1cc(-c2cccs2)nc2ccccc12 [Compound 12d] ?
55.7

Look up CC50 for this compound: CCN(CC)CCNC(=O)c1cc(-c2ccc(-c3ccccc3)cc2)nc2ccccc12 [Compound 6u]
9.8

Name the reported CC50 value associated with the compound CCN(CC)CCNC(=O)c1cc(-c2cnc(OC)nc2)nc2ccccc12 [Compound 6q]
174

Which CC50 reading was recorded for the compound CCN(CC)CCCNC(=O)c1cc(-c2ccccc2)nc2ccccc12 [Compound 10b] ?
45.4
